- Tested on: 299254-011-R-J1-PDC complex spheroids viability
- Test: Anticancer human tumor 299254-011-R-J1-PDC patient-derived melanoma cell line growth inhibition [GQUAD]; active = viability on the fitted dose curve at most 10% of control; inactive = the rest
- Stated Conditions: second compound 3.16 µM; first compound 1 µM
The reply should be one of these categories: class 1 = active, class 0 = inactive

compound="Nc1ccn(C2OC(CO)C(O)C2(F)F)c(=O)n1 (configuration not stated) + CN(C)c1ccc(Nc2c3ccc(NC(=O)CCN4CCCC4)cc3nc3cc(NC(=O)CCN4CCCC4)ccc23)cc1" label_value="class 0"

// query Tell me the assay call for O=c1[nH]cc(F)c(=O)[nH]1 + Cc1cnc(CNC(=O)c2c(=O)c3ccc(N4CCCN(C)CC4)nc3n3c2sc2ccccc23)cn1 please.
// result class 0

// query Please let me know the test result on file for CC(C)(O)C1CCC(Nc2ccc3ncc(-c4cccc(C(F)(F)F)c4)n3n2)CC1 (configuration not stated) + Cc1cnc(CNC(=O)c2c(=O)c3ccc(N4CCCN(C)CC4)nc3n3c2sc2ccccc23)cn1 .
// result class 0

// query Per the records of this test, what outcome belongs to COc1cccc2c1C(=O)c1c(O)c3c(c(O)c1C2=O)CC(O)(C(=O)CO)CC3OC1CC(N)C(O)C(C)O1 (configuration not stated) + Cc1cnc(CNC(=O)c2c(=O)c3ccc(N4CCCN(C)CC4)nc3n3c2sc2ccccc23)cn1 ?
// result class 0

// query Kindly provide the recorded test outcome for the following compound: Nc1ccn(C2OC(CO)C(O)C2(F)F)c(=O)n1 (configuration not stated) + Cc1cnc(CNC(=O)c2c(=O)c3ccc(N4CCCN(C)CC4)nc3n3c2sc2ccccc23)cn1
// result class 0

// query Can you look up the reported call for COc1ncnc(C2CC2)c1-c1ncc2cnn(Cc3ccc(-c4nc(C(F)(F)F)cn4C(C)C)cc3)c2n1 + Cc1[nH]c2ccc(F)cc2c1-c1nc2c3cccnc3c3ncccc3c2[nH]1 for me?
// result class 0

// query Can you look up the reported call for O=c1[nH]cc(F)c(=O)[nH]1 + Cc1[nH]c2ccc(F)cc2c1-c1nc2c3cccnc3c3ncccc3c2[nH]1 for me?
// result class 0

###

Entries annotated with measured viability, T/C
- System: 299254-011-R-J1-PDC complex spheroids viability
- Test: Anticancer human tumor 299254-011-R-J1-PDC cell line growth inhibition [GQUAD];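 also: spheroids exposed to the agents for seven days before readout; percent viability relative to DMSO vehicle control wells = 100%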
- Stated Conditions: second compound 10 µM; first compound 0.1 µM; stronger effect = lower value
Return type: number; implicit unit %.

// query Respond only with viability, T/C recorded for CC1COCCN1c1cc(C2(S(C)(=N)=O)CC2)nc(-c2ccnc3[nH]ccc23)n1 (stereo unspecified) + Cc1[nH]c2ccc(F)cc2c1-c1nc2c3cccnc3c3ncccc3c2[nH]1
// result 83

// query In one line, give reported viability, T/C of the entry COc1ncnc(C2CC2)c1-c1ncc2cnn(Cc3ccc(-c4nc(C(F)(F)F)cn4C(C)C)cc3)c2n1 + Cc1cnc(CNC(=O)c2c(=O)c3ccc(N4CCCN(C)CC4)nc3n3c2sc2ccccc23)cn1 .
// result 24.7

// query Read off the recorded viability, T/C for Cc1cccc(N(C)C(=O)C2C(O)CCN2c2nc(C)cc(C(F)(F)F)c2C#N)c1 (stereo unspecified) + Cc1[nH]c2ccc(F)cc2c1-c1nc2c3cccnc3c3ncccc3c2[nH]1
// result 116

###

- Tested on: 299254-011-R-J1-PDC complex spheroids viability
- Test: Anticancer human tumor 299254-011-R-J1-PDC cell line growth inhibition [GQUAD];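 also: spheroids exposed to the agents for seven days before readout; percent viability relative to DMSO vehicle control wells = 100%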
- Stated Conditions: second compound 0.1 µM; first compound 0.00999 µM; stronger effect = lower value
A collection of compounds and their measured viability, T/C
Could you give me the number in %? Just the number is fine.

Reference set, count: 2
compound="Cn1ncnc1[C@H]1c2n[nH]c(=O)c3cc(F)cc(c23)N[C@@H]1c1ccc(F)cc1 + Cc1[nH]c2ccc(F)cc2c1-c1nc2c3cccnc3c3ncccc3c2[nH]1" data_value=88.1
compound="Cc1[nH]c2ccccc2c1CCNCc1ccc(/C=C/C(=O)NO)cc1 + Cc1cnc(CNC(=O)c2c(=O)c3ccc(N4CCCN(C)CC4)nc3n3c2sc2ccccc23)cn1" data_value=97.1

In the following, a different compound is considered.
// query Please look at this compound and report its viability, T/C: CCc1c2c(nc3ccc(O)cc13)-c1cc3c(c(=O)n1C2)COC(=O)[C@]3(O)CC + CN(C)c1ccc(Nc2c3ccc(NC(=O)CCN4CCCC4)cc3nc3cc(NC(=O)CCN4CCCC4)ccc23)cc1
// result 86.2

###

- Tested on: 299254-011-R-J1-PDC complex spheroids viability
- Test: Anticancer human tumor 299254-011-R-J1-PDC cell line growth inhibition [GQUAD]; active = viability on the fitted dose curve at most 10% of control; inactive = the rest;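 also: spheroids exposed to the agents for seven days before readout; percent viability relative to DMSO vehicle control wells = 100%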
- Stated Conditions: second compound 0.316 µM; first compound 1 µM
Answer with one of the outcomes given here: true (1) = active, false (0) = inactive

Consider the following illustrative entries.
compound="CCCS(=O)(=O)Nc1ccc(F)c(C(=O)c2c[nH]c3ncc(-c4ccc(Cl)cc4)cc23)c1F + Cc1cnc(CNC(=O)c2c(=O)c3ccc(N4CCCN(C)CC4)nc3n3c2sc2ccccc23)cn1" label_value="false (0)"
compound="C=CCn1c(=O)c2cnc(Nc3ccc(N4CCN(C)CC4)cc3)nc2n1-c1cccc(C(C)(C)O)n1 + Cc1[nH]c2ccc(F)cc2c1-c1nc2c3cccnc3c3ncccc3c2[nH]1" label_value="false (0)"

// query Call for entry O=C(NO)c1cnc(N2CCN(S(=O)(=O)c3ccc4ccccc4c3)CC2)nc1 + Cc1cnc(CNC(=O)c2c(=O)c3ccc(N4CCCN(C)CC4)nc3n3c2sc2ccccc23)cn1 :
// result true (1)

// query Recorded test outcome, item O=c1[nH]cc(F)c(=O)[nH]1 + Cc1[nH]c2ccc(F)cc2c1-c1nc2c3cccnc3c3ncccc3c2[nH]1
// result false (0)

// query Assay result, entry C=CCn1c(=O)c2cnc(Nc3ccc(N4CCN(C)CC4)cc3)nc2n1-c1cccc(C(C)(C)O)n1 + CN(C)c1ccc(Nc2c3ccc(NC(=O)CCN4CCCC4)cc3nc3cc(NC(=O)CCN4CCCC4)ccc23)cc1 — outcome?
// result false (0)

// query # lookup: test call for O=C(c1cc(Cc2n[nH]c(=O)c3ccccc23)ccc1F)N1CCN(C(=O)C2CC2)CC1 + CN(C)c1ccc(Nc2c3ccc(NC(=O)CCN4CCCC4)cc3nc3cc(NC(=O)CCN4CCCC4)ccc23)cc1
// result false (0)

// query Look up the recorded call for C#Cc1c(F)ccc2cc(O)cc(-c3ncc4c(N5CC6CCC(C5)N6)nc(OCC56CCCN5CC(F)C6)nc4c3F)c12 (centres undefined) + Cc1[nH]c2ccc(F)cc2c1-c1nc2c3cccnc3c3ncccc3c2[nH]1 in this test.
// result false (0)

// query Hi, sorry to bother you, what did the test record for C#Cc1c(F)ccc2cc(O)cc(-c3ncc4c(N5CC6CCC(C5)N6)nc(OCC56CCCN5CC(F)C6)nc4c3F)c12 (centres undefined) + CN(C)c1ccc(Nc2c3ccc(NC(=O)CCN4CCCC4)cc3nc3cc(NC(=O)CCN4CCCC4)ccc23)cc1 ?
// result false (0)

// query What classification did O=c1[nH]cc(F)c(=O)[nH]1 + Cc1cnc(CNC(=O)c2c(=O)c3ccc(N4CCCN(C)CC4)nc3n3c2sc2ccccc23)cn1 end up with in this test?
// result false (0)

###

- System: 299254-011-R-J1-PDC complex spheroids viability
- Test: Anticancer human tumor 299254-011-R-J1-PDC cell line growth inhibition [GQUAD];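 also: spheroids exposed to the agents for seven days before readout; percent viability relative to DMSO vehicle control wells = 100%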
- Stated Conditions: second compound 0.316 µM; first compound 3.16 µM; stronger effect = lower value
We begin with a simple list: items and their reported viability, T/C.
Please state the figure in %; there is no need to write the unit.

Worked cases, viability, T/C given:
compound="COc1cc(C2c3cc4c(cc3C(OC3OC5COC(C)OC5C(O)C3O)C3COC(=O)C23)OCO4)cc(OC)c1O (stereo unspecified) + CN(C)c1ccc(Nc2c3ccc(NC(=O)CCN4CCCC4)cc3nc3cc(NC(=O)CCN4CCCC4)ccc23)cc1" data_value=87.2
compound="CC1COCCN1c1cc(-c2ccnn2C)c2ccnc(-c3ccn[nH]3)c2n1 (stereo unspecified) + Cc1[nH]c2ccc(F)cc2c1-c1nc2c3cccnc3c3ncccc3c2[nH]1" data_value=14.2
compound="CCCS(=O)(=O)Nc1ccc(F)c(C(=O)c2c[nH]c3ncc(-c4ccc(Cl)cc4)cc23)c1F + Cc1[nH]c2ccc(F)cc2c1-c1nc2c3cccnc3c3ncccc3c2[nH]1" data_value=90.7
compound="CC(C)(O)C1CCC(Nc2ccc3ncc(-c4cccc(C(F)(F)F)c4)n3n2)CC1 (stereo unspecified) + Cc1[nH]c2ccc(F)cc2c1-c1nc2c3cccnc3c3ncccc3c2[nH]1" data_value=82.7

// query Look up and state reported viability, T/C for Nc1ccn(C2OC(CO)C(O)C2(F)F)c(=O)n1 (stereo unspecified) + Cc1cnc(CNC(=O)c2c(=O)c3ccc(N4CCCN(C)CC4)nc3n3c2sc2ccccc23)cn1
// result 54.3

// query Answer with the recorded viability, T/C for the compound listed here: CCCS(=O)(=O)Nc1ccc(F)c(C(=O)c2c[nH]c3ncc(-c4ccc(Cl)cc4)cc23)c1F + CN(C)c1ccc(Nc2c3ccc(NC(=O)CCN4CCCC4)cc3nc3cc(NC(=O)CCN4CCCC4)ccc23)cc1
// result 112
